tested on: Toxoplasma gondii RH 2F1 tachyzoites (intracellular in HFF); experiment: parasite survival relative to DMSO control; higher = less antiparasitic activity, active = 20 or less; conditions: 1 µM; 72 h
Threshold rule: parasite survival greater than or equal to 50% is Criterion met; below that, Criterion not met.

Molecule | Classification
Cc1ccc(NC(=O)c2cc(Cl)ccc2O)cc1 | Criterion not met
CSc1ccc2c(c1)C(N1CCN(C)CC1)Cc1ccccc1S2 (stereo not drawn) | Criterion not met
Cc1cc(CCOc2c(C)cc(-c3nnn(C)n3)cc2C)on1 | Criterion met
COc1cccc(N2CCN(C3=Nc4c(F)cccc4[C@H](CC(=O)O)N3c3cc(C(F)(F)F)ccc3OC)CC2)c1 | Criterion not met
N[C@H](CCC(=O)N[C@@H](Cc1c[nH]c2ccccc12)C(=O)O)C(=O)O | Criterion met
Clc1cc2nc(C3CCNCC3)n(Cc3ccc(CNCCc4c[nH]cn4)cc3)c2cc1Cl | Criterion met
COc1cc(C)c2c(Oc3cccc(C(F)(F)F)c3)c(OC)cc(NC(C)CCCN)c2n1 (stereo not drawn) | Criterion not met
O=C(NC12CC3CC(CC(C3)C1)C2)c1cc2ccccc2[nH]1 | Criterion not met
Nc1nc(N)c2c(Sc3ccccc3)cccc2n1 | Criterion not met
O=C(Nc1nnc(-c2ccc(Cl)cc2)o1)c1ccc(F)cc1 | Criterion not met
CC1=C(/C=C/C(C)=C/C=C/C(C)=C/C(=O)Nc2ccc(O)cc2)C(C)(C)CCC1 | Criterion not met
CC(=O)Nc1cc(NS(=O)(=O)c2ccc(Cl)cc2)cc2c(Cl)[nH]nc12 | Criterion met
CCC(C)(C)c1ccc(CC(C)CN2C[C@@H](C)O[C@@H](C)C2)cc1 (stereo partly drawn) | Criterion not met
Cc1cccc(CC(=O)N[C@H]2CCOC2=O)c1 | Criterion not met
O=C(c1ccccc1)N1CCN(c2ccccc2NC(=O)C(Cl)(Cl)Cl)CC1 | Criterion met
COc1cc(Cc2cnc(N)nc2N)cc(OC)c1OC | Criterion met
O=C(NC1CCCc2c1[nH]c1ccc(Cl)cc21)c1ccccn1 (stereo not drawn) | Criterion met
COc1ccc(SCC(=O)N2c3ccccc3Sc3ccccc32)cc1 | Criterion not met
Nc1nc(-c2ccccc2)nc2[nH]nc(Nc3ccc(C(F)(F)F)cc3)c12 | Criterion not met
FC(F)(F)c1cc(C(F)(F)F)c2ccc3nc(-c4nnco4)cn3c2n1 | Criterion met
CN(C)CCCNC(=O)c1ccc(-c2cc(O)c3ncccc3c2)cc1 | Criterion met
CCCCC(CC)CNC(=N)NC(=N)NCCCCCCNC(=N)NC(=N)NCC(CC)CCCC (stereo not drawn) | Criterion not met
CCC(C)NCC(O)Cn1c2ccc(Cl)cc2c2cc(Cl)ccc21 (stereo not drawn) | Criterion not met
C[Si]1(C)CCN(Cc2cc(-c3ccc(Cl)cc3)n(-c3ccc(Cl)cc3)n2)CC1 | Criterion not met
Nc1c(C(=O)NCc2ccco2)c2nc3ccccc3nc2n1CCN1CCCCC1 | Criterion not met
Nc1ccc2oc(=O)ccc2c1I | Criterion met
Cc1c(F)cccc1NC(=O)Nc1ccc(Cl)c(S(=O)(=O)[C@H]2CCCNC2)c1O | Criterion met
O=C(Nc1[nH]c(=O)ncc1F)c1ccccc1 | Criterion met
O=C(Cn1cnc2ccccc2c1=O)Nc1ccccc1 | Criterion met
Cc1nc(-c2ccc(C3N(C)c4ccc(F)cc4C(=O)N3c3ccccc3)s2)cs1 (stereo not drawn) | Criterion met
CC1(C)C[C@H]1C(=O)N/C(=C\CCCCSC[C@@H](N)C(=O)O)C(=O)O | Criterion met
Cc1nc2ccc(Oc3ccccc3)cc2c2c1CCN2CCc1ccccc1 | Criterion not met
O=C(CCCC(F)(F)F)N1CCC(c2nc(-c3nccs3)no2)CC1 | Criterion met
CCOc1ccc(C(=O)NCCc2ccccc2)cc1 | Criterion met
CCN(CC)CCCC(C)Nc1ccnc2cc(Cl)ccc12 (stereo not drawn) | Criterion met
[N-]=[N+]=N[C@H]1C[C@H](n2ccc(=O)[nH]c2=O)O[C@@H]1CO | Criterion met
O=C(Nc1ccc(N2CCN(C(=O)c3ccccc3)CC2)cc1)c1ccc2c(c1)OCO2 | Criterion not met
Nc1nc(-c2ccccc2)nc2c1ncn2[C@@H]1O[C@H](COS(=O)(=O)NC(=O)c2ccccc2O)[C@@H](O)[C@H]1O | Criterion met
CC(C)N(c1cc(-c2ccccc2)sc1C(=O)O)C(=O)[C@H]1CC[C@H](C)CC1 | Criterion met
